Cited source: PubChem BioAssay (NCI)

Hi there, I'd appreciate the recorded growth inhibition for every entry that follows.
assay: NCI Yeast Anticancer Drug Screen. Data for the mec2-1 strain (AID 157); conditions: S. cerevisiae mec2-1 strain, at 50.0 µM, hits give high values
The panel holds about 79,000 compounds, 15% with a hit somewhere; the sample as a whole holds those more often. The source made the active and inactive calls. No stated cut-off is given here; in the data, active means growth inhibition above about 70%; inactive means the rest.

Consider the following illustrative entries.
compound | growth inhibition
CCCCNc1ccc(S(=O)(=O)c2ccc(NCCCC)c([N+](=O)[O-])c2)cc1[N+](=O)[O-] | 6.6% (inactive)
CCC(=O)C(CC)Cc1ccc(OC)c(OC)c1 (stereo not drawn) | -15.9% (inactive)
CCC(C)c1cc(CN(C)C)cc(C(C)CC)c1O (stereo not drawn) | 1.1% (inactive)

For every record below, what is its growth inhibition?
1. Cc1nnc2n(c1=O)CCCN2C
2. O=S(=O)(c1cccc(C(F)(F)F)c1)N(CCCCN(S(=O)(=O)c1cccc(C(F)(F)F)c1)S(=O)(=O)c1cccc(C(F)(F)F)c1)S(=O)(=O)c1cccc(C(F)(F)F)c1
3. CCN(CC)CCC(C(=O)O)(c1ccccc1)C1(O)CCCC1 (stereo not drawn)
4. CCOC(=O)c1nc(N)c2c(CC#N)nn(C)c2n1
5. O=C(O)CCC(=O)NNC(=O)CCC(=O)O
6. COC(=O)C1(C)CCCC2(C)C1CCC13OC(=O)C(C(C)C)(CC21)C3O (stereo not drawn)

(A)
1. 6.2% (inactive)
2. -11.6% (inactive)
3. -13.3% (inactive)
4. -15.4% (inactive)
5. -2.45% (inactive)
6. -28.3% (inactive)

Need growth inhibition for each of these compounds.
1. O=C1N=NC(=O)N1c1ccccc1
2. C1COC(C2=NCCO2)=N1
3. CCC(=O)OC1CCC(OC(=O)CC)CC1 (stereo not drawn)
4. Cc1cc(C)nc(N)n1

(A)
["4.3% (inactive)", "2.6% (inactive)", "9.8% (inactive)", "0.35% (inactive)"]

====

Provide the reported growth inhibition of each item.
test: NCI Yeast Anticancer Drug Screen. Data for the cln2 rad14 strain (AID 165);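 further: 0% = growth equal to vehicle treated cultures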; conditions: S. cerevisiae cln2 rad14 strain, at 50.0 µM, hits give high values
Compounds without any hit were thinned out: in the full panel of roughly 79,000, 15% have a hit.
Answers are plain numbers, in %.

molecule | growth inhibition (%)
CCNC(C(=O)O)C1CCCCC1 (configuration not stated) | 8.5

State recorded growth inhibition for all listed molecules.
1. Cc1n(CC(=O)c2ccccc2)nc2sc(N)n[n+]12
2. NNC1CCN(Cc2ccccc2)CC1
3. NC(=S)Nc1ccccc1Cl
4. Cc1ccnn1CCc1ccc(Cl)cc1Cl
5. C=C[C@@]1(C)CC(=O)[C@]2(O)[C@@]3(C)[C@@H](O)CCC(C)(C)[C@@H]3[C@H](O)[C@@H](OC(C)=O)[C@@]2(C)O1

(A)
-18.2
22.2
-18.1
11.4
9.2

====

assay: NCI Yeast Anticancer Drug Screen. Data for the bub3 strain (AID 167); conditions: S. cerevisiae bub3 mutant strain, at 50.0 µM, hits give high values
This is part of a sample that, as a whole, favours compounds with a hit. Of some 79,000 tested, about 15% had one in any assay.
The label depends only on growth inhibition: label 1 if it is at least 20%, label 0 if it is smaller.

Examples with answers:
compound | classification
COP(=O)(OC)C(Cc1cn(C(C)=O)c2ccccc12)C(=O)O (stereo unspecified) | label 0
O=C(O)CCCc1ccc2sc3ccccc3c2c1 | label 1
COc1nc(NC2OC(CO)C(O)C(O)C2O)cc(=O)[nH]1 (stereo unspecified) | label 0
CCOC(=O)C(C)(C)Oc1ccc2c(-c3ccccc3)cc(=O)oc2c1 | label 0
COC(=O)C1=C(C)N(NC(=O)c2ccccc2)C(C)(O)C12CCOC2=O (stereo unspecified) | label 0

Turning to the following compound.
(Q) Hi, just wondering whether COc1cc(C(=O)C(C=O)c2ccccc2)c([N+](=O)[O-])cc1OC (stereo unspecified) shows growth inhibition of 20% or higher.
(A) label 1
